# Organism: Rattus norvegicus
# Procedure Text: Concentration that produces 50% displacement of [3H]-kainic acid from nerve cell membrane receptor sites
# Type: functional
Recorded Metric: IC50 (nM)

Compound	Output Unit	Value Observed
C/C(=C/c1cccc([N+](=O)[O-])c1)C1CN[C@H](C(=O)O)C1CC(=O)O (some centres undefined)	nM	417
CC(C)[C@H]1CN[C@H](C(=O)O)[C@H]1CC(=O)O [DIHYDROKAINATE]	nM	646
C=C(C)[C@H]1CN[C@H](C(=O)O)[C@H]1CC(=O)O [KAINIC ACID]	nM	17.8
C/C(=C\c1cccc([N+](=O)[O-])c1)C1CN[C@H](C(=O)O)C1CC(=O)O (some centres undefined)	nM	79.4
